The reported numbers originate from ChEMBL document CHEMBL5620408.

Quick reference for selectivity ratio among some compounds
Experiment: Selectivity index, ratio of CC50 for human MT4 cells to EC50 for antiviral activity against HIV IIIB
RECORDED ENDPOINT: selectivity ratio

>>> data_value("Cc1cc(/C=C/C#N)cc(C)c1Oc1ccnc(Nc2ccc(N3CCN(S(=O)(=O)N(C)C)CC3)cc2)n1")
10200
>>> data_value("Cc1cc(/C=C/C#N)cc(C)c1Oc1ccnc(Nc2ccc(N3CC[S+]([O-])CC3)c(F)c2)n1")
9800
